Reference source for all entries: ChEMBL document CHEMBL1131259

Biological target: Tryptase (Homo sapiens) (UniProt Q9BZJ3+Q15661+Q9NRR2)
Experiment: Inhibition of mast cell tryptase
Type: protein assay
Quick rule: kobs/[I] (second-order inhibition rate constant) of at least 3 M⁻¹ s⁻¹ means Satisfied, below that means Not satisfied.

Previously resolved entries follow.
INSERT INTO results (compound, tested_target, label) VALUES
  ('NC(N)c1ccc(C(NS(=O)(=O)c2cccc3ccccc23)P(=O)(Oc2ccccc2)Oc2ccccc2)cc1 (configuration not stated)', 'Tryptase (Homo sapiens) (UniProt Q9BZJ3+Q15661+Q9NRR2)', 'Satisfied'),
  ('NCCCCCC(NC(=O)OCc1ccccc1)P(=O)(Oc1ccccc1)Oc1ccccc1 (configuration not stated)', 'Tryptase (Homo sapiens) (UniProt Q9BZJ3+Q15661+Q9NRR2)', 'Not satisfied'),
  ('N=C(N)c1ccc(CC(NC(=O)OCc2ccccc2)P(=O)(Oc2ccccc2)Oc2ccccc2)cc1 (configuration not stated)', 'Tryptase (Homo sapiens) (UniProt Q9BZJ3+Q15661+Q9NRR2)', 'Satisfied'),
  ('C[C@H](NC(=O)[C@@H](C)NC(=O)OCc1ccccc1)C(=O)NC(c1ccc(C(=N)N)cc1)P(=O)(Oc1ccccc1)Oc1ccccc1 (some centres not stated)', 'Tryptase (Homo sapiens) (UniProt Q9BZJ3+Q15661+Q9NRR2)', 'Not satisfied'),
  ('C[C@H](NC(=O)[C@H]1CCCN1C(=O)OCc1ccccc1)C(=O)NC(c1ccc(C(=N)N)cc1)P(=O)(Oc1ccccc1)Oc1ccccc1 (some centres not stated)', 'Tryptase (Homo sapiens) (UniProt Q9BZJ3+Q15661+Q9NRR2)', 'Not satisfied');

Does kobs/[I] (second-order inhibition rate constant) meet or surpass 3 M⁻¹ s⁻¹ for CC(C)[C@H](NC(=O)OCc1ccccc1)C(=O)NC(c1ccc(C(=N)N)cc1)P(=O)(Oc1ccccc1)Oc1ccccc1 (some centres not stated) ?
Satisfied

====

Target: Granzyme A (Homo sapiens) (UniProt P12544)
Sequence (P12544 whole entry): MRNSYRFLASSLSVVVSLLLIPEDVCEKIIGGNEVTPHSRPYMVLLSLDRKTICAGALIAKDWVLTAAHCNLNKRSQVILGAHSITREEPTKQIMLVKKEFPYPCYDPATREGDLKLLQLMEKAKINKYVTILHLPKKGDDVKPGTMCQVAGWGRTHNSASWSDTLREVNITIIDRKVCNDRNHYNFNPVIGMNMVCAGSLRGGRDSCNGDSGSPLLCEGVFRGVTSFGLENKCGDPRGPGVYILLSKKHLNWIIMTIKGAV
Assay: Inhibition of human granzyme A
Field: kobs/[I] (second-order inactivation rate constant). Provide a value for each of the compounds that follow.

Recorded results for 5 compounds are shown here.
INSERT INTO assay_data (compound, tested_target, readout_value) VALUES
  ('N=C(N)c1ccc(C(NC(=O)[C@H](Cc2ccccc2)NC(=O)OCc2ccccc2)P(=O)(Oc2ccccc2)Oc2ccccc2)cc1 (stereo partly drawn)', 'Granzyme A (Homo sapiens) (UniProt P12544)', '14 M⁻¹ s⁻¹'),
  ('C[C@H](NC(=O)[C@@H](C)NC(=O)CCC(=O)O)C(=O)NC(c1ccc(C(=N)N)cc1)P(=O)(Oc1ccccc1)Oc1ccccc1 (stereo partly drawn)', 'Granzyme A (Homo sapiens) (UniProt P12544)', '260 M⁻¹ s⁻¹'),
  ('NCCCC(NC(=O)OCc1ccccc1)P(=O)(Oc1ccccc1)Oc1ccccc1 (stereo not drawn)', 'Granzyme A (Homo sapiens) (UniProt P12544)', '0.6 M⁻¹ s⁻¹'),
  ('N=C(N)c1ccc(C(NC(=O)[C@@H]2CCCN2C(=O)CC(c2ccccc2)c2ccccc2)P(=O)(Oc2ccccc2)Oc2ccccc2)cc1 (stereo partly drawn)', 'Granzyme A (Homo sapiens) (UniProt P12544)', '250 M⁻¹ s⁻¹'),
  ('N=C(N)c1ccc(C(NC(=O)[C@@H]2CCCN2C(=O)CCc2ccccc2)P(=O)(Oc2ccccc2)Oc2ccccc2)cc1 (stereo partly drawn)', 'Granzyme A (Homo sapiens) (UniProt P12544)', '1510 M⁻¹ s⁻¹');

Items follow; give kobs/[I] (second-order inactivation rate constant) for each.
1. N=C(N)c1ccc(C(NC(=O)/C=C/c2ccccc2)P(=O)(Oc2ccccc2)Oc2ccccc2)cc1 (stereo not drawn)
2. C[C@H](NC(=O)[C@H]1CCCN1C(=O)OCc1ccccc1)C(=O)NC(c1ccc(C(=N)N)cc1)P(=O)(Oc1ccccc1)Oc1ccccc1 (stereo partly drawn)

400 M⁻¹ s⁻¹
380 M⁻¹ s⁻¹

Please list kobs/[I] (second-order inactivation rate constant) recorded for the compound N=C(N)c1ccc(C(NC(=O)/C=C/c2cccnc2)P(=O)(Oc2ccccc2)Oc2ccccc2)cc1 (stereo not drawn)
5 M⁻¹ s⁻¹
